# measuredOn: Androgen receptor (Homo sapiens)
# Sequence (P10275 whole entry): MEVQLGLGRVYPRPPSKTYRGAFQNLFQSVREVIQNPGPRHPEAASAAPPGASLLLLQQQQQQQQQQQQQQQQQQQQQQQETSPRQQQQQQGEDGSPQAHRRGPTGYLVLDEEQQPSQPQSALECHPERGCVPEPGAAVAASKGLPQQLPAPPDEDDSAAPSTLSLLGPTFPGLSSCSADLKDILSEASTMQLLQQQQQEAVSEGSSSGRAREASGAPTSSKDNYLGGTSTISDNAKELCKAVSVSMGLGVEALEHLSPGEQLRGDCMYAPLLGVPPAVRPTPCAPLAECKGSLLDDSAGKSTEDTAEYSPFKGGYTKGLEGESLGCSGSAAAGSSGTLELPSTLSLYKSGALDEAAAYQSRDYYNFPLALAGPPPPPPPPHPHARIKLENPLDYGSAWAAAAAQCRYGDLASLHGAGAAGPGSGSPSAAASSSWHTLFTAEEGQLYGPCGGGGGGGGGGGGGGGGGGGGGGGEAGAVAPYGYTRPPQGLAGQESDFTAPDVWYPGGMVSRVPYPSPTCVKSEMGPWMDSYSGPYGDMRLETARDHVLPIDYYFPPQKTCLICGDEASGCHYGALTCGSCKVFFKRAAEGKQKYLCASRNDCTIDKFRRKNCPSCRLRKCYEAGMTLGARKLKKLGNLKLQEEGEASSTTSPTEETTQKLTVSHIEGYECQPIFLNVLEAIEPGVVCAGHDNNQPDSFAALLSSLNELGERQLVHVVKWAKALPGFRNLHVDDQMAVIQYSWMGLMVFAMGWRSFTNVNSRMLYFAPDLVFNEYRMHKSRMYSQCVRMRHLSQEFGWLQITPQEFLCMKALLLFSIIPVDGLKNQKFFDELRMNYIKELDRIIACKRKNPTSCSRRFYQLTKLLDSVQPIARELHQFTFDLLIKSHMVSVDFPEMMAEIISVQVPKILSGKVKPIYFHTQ
# testDetails: Inhibition of BF3 site of androgen receptor in human LNCAP cells expressing ARR2PB assessed as reduction in PSA level after 3 days
# Format: cell-based
A collection of compounds and their measured pIC50
// scale note: pIC50 = -log10(conc_M); give the bare number

Lookup: Given the entry NS(=O)(=O)c1cccc2cc(SCCOc3ccccc3)[nH]c12 , what pIC50 was observed with Androgen receptor (Homo sapiens)?
Found: 5.80

Lookup: Next record, please: Cc1cccc(OCCSc2nc3ccccc3[nH]2)c1
Found: 5.48

Consider the additional compound presented here.
Lookup: Which pIC50 is reported with Androgen receptor (Homo sapiens) for this entry: Cc1cccc(C)c1OCCSc1nc2ccccc2[nH]1 ?
Found: 5.72
